Listed below: TGI values for each entry.
Tested on: M14 melanoma
Assay: NCI tumour cell line growth inhibition, 48 h
quantity: TGI

compound	system_under_test	meas_value
Cc1ccc(NC(=O)C(=O)Cc2cccc[n+]2[O-])cc1C	M14 melanoma	> 100 µM
CCCCCCCCCCCCC1N=C(N)N2CCCC2=C1C(=O)OC (stereo not given)	M14 melanoma	3.16 µM
O=C(/C(=C/c1ccc(O)cc1)c1ccccc1)c1ccccc1	M14 melanoma	30.9 µM
COc1ccc2c(c1)CC[C@@H]1C2CC[C@]2(C)C(=C=CP(=O)(O)O)CCC12 (stereo not given in full)	M14 melanoma	> 100 µM
c1ccc2c3c([nH]c2c1)C1C2CCCCN2C(c2ccncc2)N1CC3 (stereo not given)	M14 melanoma	> 100 µM
N#Cc1c(N)nc(Sc2ccccc2N)c(C#N)c1-c1ccccc1	M14 melanoma	> 100 µM
O=C(/C=C(\[O-])c1ccccc1)CCCCCCC(=O)/C=C(\[O-])c1ccccc1.O=C(/C=C(\[O-])c1ccccc1)CCCCCCC(=O)/C=C(\[O-])c1ccccc1.O=C(/C=C(\[O-])c1ccccc1)CCCCCCC(=O)/C=C(\[O-])c1ccccc1.[Nd+3].[Nd+3]	M14 melanoma	> 50 µM
COC(=O)c1sc(=NC(=S)N2CCCCC2)sc1C(=O)OC	M14 melanoma	> 100 µM
CC(CC=O)Nc1nn2c(=O)c3ccccc3nc2s1 (stereo not given)	M14 melanoma	> 100 µM
COCC1N=C(c2cc(OC)c(OC)c(OC)c2-c2cc3c(cc2[C@H](C)O)OCO3)O[C@H]1c1ccccc1 (stereo not given in full)	M14 melanoma	> 100 µM
C=C(Cn1c2ccccc2c(=O)c2ccccc21)c1ccc(C(=O)Nc2ccccc2N)cc1	M14 melanoma	> 100 µM
Oc1ccccc1C=Nc1nc(OCc2ccccc2)nc2[nH]ncc12	M14 melanoma	57.7 µM
CC[C@@]12CCC(=S)N(CCSc3ccccc3)[C@@H]1c1c(n(S(=O)(=O)c3ccc(OC)cc3)c3ccccc13)CC2	M14 melanoma	> 100 µM
O=c1[nH]c2ccc([N+](=O)[O-])c(Cl)c2c2ccccc12	M14 melanoma	> 100 µM
COc1ccc(OCC(O)CN2CCN(c3ccc(Cl)cc3)CC2)cc1 (stereo not given)	M14 melanoma	> 100 µM
Nc1nc(=S)[nH]c(C(=O)Nc2nccs2)c1-c1ccccc1	M14 melanoma	> 100 µM
CCOC(=O)C1CCC(=O)N1C(=O)c1ccc(Cl)cc1 (stereo not given)	M14 melanoma	> 100 µM
N#CC(NC(=O)CCl)=C(Cl)Cl	M14 melanoma	2.87 µM
COC(=O)CC1CC2(C(=O)OC)c3[nH]c4ccccc4c3CCN2C1=O (stereo not given)	M14 melanoma	> 100 µM
c1cc2c(cc1[C@@H]1OC[C@@H]3[C@H]1CO[C@H]3c1ccc3c(c1)OCO3)OCO2	M14 melanoma	> 100 µM
